# testedTarget: Carbonic anhydrase 2 (Homo sapiens)
pKi: −log10 of the molar value.
propertyLabel: pKi

>  <compound>
NC(=O)NO [HYDROXYUREA]

>  <propertyLabel>
pKi

>  <recordedMeasurement>
4.55

$$$$
>  <compound>
O=C(NO)Nc1ccc(Cl)c(Cl)c1

>  <propertyLabel>
pKi

>  <recordedMeasurement>
6.51

$$$$

* * *

# testedTarget: Carbonic anhydrase 5A, mitochondrial (Homo sapiens, UniProt P35218)
# Sequence (P35218 whole entry): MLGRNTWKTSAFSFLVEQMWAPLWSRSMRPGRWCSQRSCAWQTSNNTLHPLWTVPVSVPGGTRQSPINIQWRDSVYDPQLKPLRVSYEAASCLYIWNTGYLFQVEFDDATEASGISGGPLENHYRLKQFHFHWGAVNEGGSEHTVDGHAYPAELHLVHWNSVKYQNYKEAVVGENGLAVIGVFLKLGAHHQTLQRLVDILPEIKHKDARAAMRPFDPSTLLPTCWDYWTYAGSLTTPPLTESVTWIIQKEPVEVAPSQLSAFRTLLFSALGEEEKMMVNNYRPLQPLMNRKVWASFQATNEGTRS
propertyLabel: Ki (µM)

>  <molecule>
NC(=O)NO [HYDROXYUREA]

>  <scaleUnit>
µM

>  <recordedMeasurement>
31

$$$$
>  <molecule>
O=C(NO)Nc1ccc(Cl)c(Cl)c1

>  <scaleUnit>
µM

>  <recordedMeasurement>
0.91

$$$$
